tested_target: KRAS G12V (Homo sapiens (Human), UniProt P01116+P62937, G12V)
Sequence (P01116-2 other isoform, or with tags, fused parts or gaps G12V): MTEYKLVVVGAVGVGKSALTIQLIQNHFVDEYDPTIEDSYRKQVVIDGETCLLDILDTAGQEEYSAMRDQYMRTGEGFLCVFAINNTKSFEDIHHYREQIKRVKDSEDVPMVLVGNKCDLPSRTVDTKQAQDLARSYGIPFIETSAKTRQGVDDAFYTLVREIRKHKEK
Sequence (P62937 whole entry): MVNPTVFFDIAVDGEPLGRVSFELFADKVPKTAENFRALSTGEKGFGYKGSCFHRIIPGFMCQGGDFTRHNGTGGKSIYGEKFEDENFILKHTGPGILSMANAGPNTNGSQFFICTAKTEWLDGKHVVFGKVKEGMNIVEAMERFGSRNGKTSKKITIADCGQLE
experiment_description: Ras-Raf (BRAF RBD) disruption / FRET / MOA assay, KRAS G12V
Type: biochemical
run_conditions: read-out: IC50* KRAS G12V FRET data
pIC50: −log10 of the molar value.
In this section we review reported pIC50 values for a set of compounds.

Solved entries:
compound	tested_target	pIC50
CCn1c(-c2cccnc2[C@H](C)OC)c2c3cc(ccc31)C1CCCN(C1)C[C@H](NC(=O)[C@@H](COC1CN(C(=O)C#CC(C)(C)N(C)C)C1)C(C)C)C(=O)N1CCC[C@H](N1)C(=O)OCC(C)(C)C2	KRAS G12V (Homo sapiens (Human), UniProt P01116+P62937, G12V)	< 5.00
C=CC(=O)N1CCN(C(=O)N(C)[C@H](C(=O)N[C@H]2Cc3nc(cs3)-c3ccc4c(c3)c(c(-c3cccnc3[C@H](C)OC)n4CC)CC(C)(C)COC(=O)[C@@H]3CCCN(N3)C2=O)C(C)C)[C@@H]2C[C@@H]21 (atropisomer, axis not shown)	KRAS G12V (Homo sapiens (Human), UniProt P01116+P62937, G12V)	6.00 to 7.00
C=CC(=O)N1CC[C@]2(C1)OCN([C@H](C(=O)N[C@H]1Cc3cccc(n3)-c3ccc4c(c3)c(c(-c3cccnc3[C@H](C)OC)n4CC)CC(C)(C)COC(=O)[C@@H]3CCCN(N3)C1=O)C(C)C)C2=O (atropisomer, axis not shown)	KRAS G12V (Homo sapiens (Human), UniProt P01116+P62937, G12V)	5.00 to 6.00
C=CC(=O)N1CC[C@H](C(=O)N(C)[C@H](C(=O)N[C@H]2Cc3cccc(c3)-c3ccc4c(c3)c(c(-c3cccnc3[C@H](C)OC)n4CC(F)F)CC(C)(C)COC(=O)[C@@H]3CCCN(N3)C2=O)C(C)C)C1 (atropisomer, axis not shown)	KRAS G12V (Homo sapiens (Human), UniProt P01116+P62937, G12V)	5.00 to 6.00
CCn1c(-c2cccnc2[C@H](C)OC)c2c3cc(ccc31)N1CCO[C@@H](C[C@H](NC(=O)[C@@H](COC3CCN(C(=O)C#CC(C)(C)N(C)C)CC3)C(C)C)C(=O)N3CCC[C@H](N3)C(=O)OCC(C)(C)C2)C1 (atropisomer, axis not shown)	KRAS G12V (Homo sapiens (Human), UniProt P01116+P62937, G12V)	< 5.00

Given item "C=CC(=O)N1C[C@@H](C(=O)N(C)[C@H](C(=O)N[C@H]2Cc3cc(O)cc(c3)-c3ccc4c(c3)c(c(-c3cccnc3COC)n4CC)CC(C)(C)COC(=O)[C@@H]3CCCN(N3)C2=O)C(C)C)C[C@H]1C" , the value recorded as its pIC50 is 5.00 to 6.00

Given item C=CC(=O)N1CC[C@H](C(=O)N(C)[C@H](C(=O)N[C@H]2C[C@H]3CN(CCO3)c3ccc4c(c3)c(c(-c3cccnc3[C@H](C)OC)n4CC)CC(C)(C)COC(=O)[C@@H]3CCCN(N3)C2=O)C(C)C)C1 (atropisomer, axis not shown) , the value recorded as its pIC50 is 5.00 to 6.00

Given item C=CC(=O)NCCN1CCN(C(=O)N(C)[C@H](C(=O)N[C@H]2Cc3nc(cs3)-c3ccc4c(c3)c(c(-c3cccnc3[C@H](C)OC)n4CC)CC(C)(C)COC(=O)[C@@H]3CCCN(N3)C2=O)C(C)C)CC1 (atropisomer, axis not shown) , the value recorded as its pIC50 is 6.00 to 7.00
